Provenance of the data: patent US20240368163A1

- Test system: MYB
- ASSAY NOTES: HiBiT protein abundance assay, MYB
- Assay type: cell-based, human
- EXPERIMENTAL PARAMETERS: Homo sapiens, K562, 24 h, Table 13B, modified K562 cells
- Description: Compounds described herein were used to screen for effects on quantitative protein abundance using a HiBit assay system (Promega). Quantitative protein abundance was determined by measuring the protein levels of HiBit-tagged protein targets expressed in cell culture via luminescence using the Nano-Glo HiBiT Lytic Detection System, which uses a split complementation assay format to reconstitute NanoBiT enzyme to generate a luminescent signal. […]
pIC50: −log10 of the molar value.
Provide the recorded pIC50 for the entries that follow.

# pIC50 (molecule: CCOc1nc(-c2ccc(OC3CC(C)(C)NC(C)(C)C3)nn2)cc(F)c1-c1cn[nH]c1 [Compound 966] ) is > 7.00

# pIC50 (molecule: Cc1nc(-c2ccc(N(C)[C@@H]3C[C@H]4CC[C@@H](C3)N4)nn2)ccc1-c1cn[nH]c1 [Compound 912] ) is 5.00 to 6.00

# pIC50 (molecule: CCOc1nc(-c2ccc(OC3CC(C)(C)NC(C)(C)C3)nn2)ccc1-c1cn[nH]c1 [Compound 967] ) is 6.00 to 7.00

# pIC50 (molecule: CC1(C)CC(Oc2ccc(-c3ccc(-c4cn[nH]c4)c(OC4CC4)n3)nn2)CC(C)(C)N1 [Compound 968] ) is 5.00 to 6.00

# pIC50 (molecule: COc1nc(-c2ccc(N[C@@H]3C[C@H]4CC[C@@H](C3)N4)nn2)ccc1-n1cccn1 [Compound 948] ) is 6.00 to 7.00

# pIC50 (molecule: CN(c1ccc(-c2ccc(-c3cn[nH]c3)c(OC3CC3)n2)nn1)[C@@H]1C[C@H]2CC[C@@H](C1)N2 [Compound 939] ) is > 7.00

# pIC50 (molecule: COc1nc(-c2ccc(N(C)[C@@H]3C[C@H]4CC[C@@H](C3)N4)nn2)ccc1-c1ccnc(O)c1 [Compound 961] ) is 5.00 to 6.00

# pIC50 (molecule: COc1cc(-c2ccc(N(C)[C@@H]3C[C@H]4CC[C@@H](C3)N4)nn2)ncc1-c1cn[nH]c1 [Compound 921] ) is 5.00 to 6.00

# pIC50 (molecule: COc1nc(-c2ccc(OC3CC(C)(C)NC(C)(C)C3)nn2)ccc1-c1cn(C)nn1 [Compound 946] ) is 5.00 to 6.00

# pIC50 (molecule: COc1nc(-c2ccc(OC3CC4CCC(C3)N4)nn2)ccc1-n1cccn1 (stereo not drawn) [Compound 949] ) is 5.00 to 6.00

# pIC50 (molecule: CCOc1nc(-c2ccc(OC3CC4CC(F)(F)C(C3)N4)nn2)ccc1-c1cn[nH]c1 (stereo not drawn) [Compound 970] ) is < 5.00

# pIC50 (molecule: COc1cc(-c2ccc(-c3ccc(N(C)[C@@H]4C[C@H]5CC[C@@H](C4)N5)nn3)nc2OC)cnn1 [Compound 959] ) is 6.00 to 7.00

# pIC50 (molecule: COc1nc(-c2ncc(N(C)[C@@H]3C[C@H]4CC[C@@H](C3)N4)cn2)ccc1-c1cn[nH]c1 [Compound 997] ) is < 5.00

# pIC50 (molecule: COc1nc(-c2ccc(N[C@@H]3C[C@H]4CC[C@@H](C3)N4)nn2)ccc1-c1cnn(C)n1 [Compound 942] ) is 6.00 to 7.00

# pIC50 (molecule: COc1nc(-c2cnc(N(C)[C@@H]3C[C@H]4CC[C@@H](C3)N4)cn2)ccc1-c1cn[nH]c1 [Compound 980] ) is 5.00 to 6.00
